The entries below are paired with their reported IC50.
# Assay system: LRRK2 (G2019S) (Homo sapiens, UniProt Q5S007, G2019S)
# Sequence (Q5S007 970-2527 G2019S limits assumed): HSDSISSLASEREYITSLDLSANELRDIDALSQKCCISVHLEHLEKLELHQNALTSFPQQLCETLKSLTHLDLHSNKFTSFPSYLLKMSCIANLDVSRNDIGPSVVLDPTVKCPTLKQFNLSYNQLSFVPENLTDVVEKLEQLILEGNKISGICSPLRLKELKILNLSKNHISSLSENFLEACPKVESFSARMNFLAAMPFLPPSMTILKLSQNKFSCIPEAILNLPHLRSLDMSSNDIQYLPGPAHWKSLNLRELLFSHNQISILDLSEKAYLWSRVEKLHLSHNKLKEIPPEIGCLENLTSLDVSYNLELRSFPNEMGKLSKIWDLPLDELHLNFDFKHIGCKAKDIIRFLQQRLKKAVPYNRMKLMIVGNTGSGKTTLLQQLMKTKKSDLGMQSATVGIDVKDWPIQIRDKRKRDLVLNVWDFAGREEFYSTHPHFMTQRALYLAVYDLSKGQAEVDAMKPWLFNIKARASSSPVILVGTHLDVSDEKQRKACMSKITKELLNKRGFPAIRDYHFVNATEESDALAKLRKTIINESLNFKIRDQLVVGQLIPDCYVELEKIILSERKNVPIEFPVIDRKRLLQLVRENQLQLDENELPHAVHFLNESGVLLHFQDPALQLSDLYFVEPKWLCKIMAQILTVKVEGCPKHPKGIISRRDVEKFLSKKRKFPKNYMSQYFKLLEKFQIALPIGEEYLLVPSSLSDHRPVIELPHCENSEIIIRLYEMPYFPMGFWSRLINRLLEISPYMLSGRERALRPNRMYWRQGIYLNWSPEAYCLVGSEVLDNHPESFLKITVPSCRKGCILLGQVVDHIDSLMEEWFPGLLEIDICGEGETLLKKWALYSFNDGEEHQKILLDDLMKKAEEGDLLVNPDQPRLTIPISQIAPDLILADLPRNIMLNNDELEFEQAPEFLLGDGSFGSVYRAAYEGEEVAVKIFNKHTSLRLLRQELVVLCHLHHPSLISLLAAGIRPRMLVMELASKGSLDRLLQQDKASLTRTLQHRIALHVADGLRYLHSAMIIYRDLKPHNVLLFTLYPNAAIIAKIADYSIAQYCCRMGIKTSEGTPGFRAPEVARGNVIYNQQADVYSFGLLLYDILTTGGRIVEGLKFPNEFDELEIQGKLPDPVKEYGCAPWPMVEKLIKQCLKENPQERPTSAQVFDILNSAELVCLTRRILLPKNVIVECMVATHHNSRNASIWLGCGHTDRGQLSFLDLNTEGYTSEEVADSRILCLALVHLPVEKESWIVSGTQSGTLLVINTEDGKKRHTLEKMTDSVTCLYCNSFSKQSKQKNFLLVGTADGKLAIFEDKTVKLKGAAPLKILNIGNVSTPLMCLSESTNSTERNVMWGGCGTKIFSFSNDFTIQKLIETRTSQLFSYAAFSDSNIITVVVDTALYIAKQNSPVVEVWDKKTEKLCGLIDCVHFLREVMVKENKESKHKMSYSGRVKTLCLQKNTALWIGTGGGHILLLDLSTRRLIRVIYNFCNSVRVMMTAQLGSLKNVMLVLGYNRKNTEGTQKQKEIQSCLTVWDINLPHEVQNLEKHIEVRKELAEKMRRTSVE
# Procedure summary: LRRK2 G2019S enzyme inhibition, ADP-Glo kinase assay
# Assay type: biochemical
# Parameters: purchased SignalChem L10-12GG
# Condition context: ATP 25 μM

>  <Compound>
COc1cc(P2(=O)CCN(C3COC3)CC2)ccc1Nc1nc(NCCS(C)(=O)=O)c2c(C#N)c[nH]c2n1

>  <Assay system>
LRRK2 (G2019S) (Homo sapiens, UniProt Q5S007, G2019S)

>  <IC50>
< 0.1 µM

$$$$
>  <Compound>
COCCNc1nc(Nc2ccc(S(C)(=O)=O)cc2OC)nc2[nH]cc(C#N)c12

>  <Assay system>
LRRK2 (G2019S) (Homo sapiens, UniProt Q5S007, G2019S)

>  <IC50>
< 0.1 µM

$$$$
>  <Compound>
COCC(C)(C)Nc1nc(Nc2ccc(S(=O)(=O)N3CCC(N4CCOCC4)CC3)cc2OC)nc2[nH]ccc12

>  <Assay system>
LRRK2 (G2019S) (Homo sapiens, UniProt Q5S007, G2019S)

>  <IC50>
< 0.1 µM

$$$$
>  <Compound>
COc1cc(S(=O)(=O)N2CCOCC2)ccc1Nc1nc(NCC(C)C)c2c(C#N)c[nH]c2n1

>  <Assay system>
LRRK2 (G2019S) (Homo sapiens, UniProt Q5S007, G2019S)

>  <IC50>
< 0.1 µM

$$$$
>  <Compound>
CCCNc1nc(Nc2ccc(S(=O)(=O)N3CCC(N4CCOCC4)CC3)cc2OC)nc2[nH]cc(C(F)(F)F)c12

>  <Assay system>
LRRK2 (G2019S) (Homo sapiens, UniProt Q5S007, G2019S)

>  <IC50>
0.101 to 0.3 µM

$$$$
>  <Compound>
COc1cc(S(=O)(=O)N2CCOCC2)ccc1Nc1nc(NC2CCCC2)c2cc[nH]c2n1 [Example 25, 2,2,2-trifluoroacetate]

>  <Assay system>
LRRK2 (G2019S) (Homo sapiens, UniProt Q5S007, G2019S)

>  <IC50>
< 0.1 µM

$$$$
>  <Compound>
CNc1nc(Nc2ccc(S(=O)(=O)N3CCOCC3)cc2OC)nc2[nH]ccc12 [Example 2, 2,2,2-trifluoroacetate]

>  <Assay system>
LRRK2 (G2019S) (Homo sapiens, UniProt Q5S007, G2019S)

>  <IC50>
< 0.1 µM

$$$$
